Hey, just so you know, these numbers are from ChEMBL document CHEMBL1201862.

Exercise: for every item that follows, state its recorded GI50.
# System: MDA-MB-435
# method summary: NCI tumour cell line growth inhibition, 48 h
Activity calls are given as the source filed them. Cut-off read from the data, not from the text of the source: active = GI50 up to about 1.1 µM and inactive = higher.

CN1C(=O)C(O)CC1c1ccc(C(F)(F)F)cc1 (stereo not given): > 100 µM (inactive)
CCOc1ccc(/N=N/c2ccc(-c3ccc(/N=N/c4c(O)ccc5cc(S(=O)(=O)O)cc(S(=O)(=O)O)c45)cc3)cc2)cc1: > 100 µM (inactive)
O=c1oc2ncccc2n1Cc1ccc([N+](=O)[O-])cc1: > 100 µM (inactive)
C#CC(O)/C=C/C(O)CCCC(O)CC#CC(O)C#CCCCCC(O)/C=C/CCCC(=O)CCCCCCCCCCCCCCCC(O)C(O)C#CC(=O)O (stereo not given): > 25 µM (inactive)

Next compound, please.
Recorded GI50 of CN(C)C1(N(C)C)Oc2c(c(=O)n(C)c(=O)n2C)C(c2ccc(C(F)(F)F)cc2)C1(F)F (stereo not given) , please. > 100 µM (inactive)
